species: Homo sapiens; assay: Selectivity index, ratio of inhibition of B-raf (unknown origin) to inhibition of partial length human MKK4 (S84 to D399 residues) expressed in mammalian expression system assessed as residual percent of control binding at 100 nM relative to control
property label: Selectivity ratio

> print(dat)
                                   compound  readout.value
1  CCCS(=O)(=O)Nc1ccc(F)c(C(=O)c2n[nH]c3ncc(-c4cccc(OC)c4)cc23)c1F              3
2  CCCS(=O)(=O)Nc1ccc(F)c(C(=O)c2n[nH]c3ncc(-c4ccc(C(C)(C)C)cc4)cc23)c1F            < 3
3  CCCS(=O)(=O)Nc1ccc(F)c(C(=O)c2n[nH]c3ncc(-c4cccc(F)c4)cc23)c1F            < 3
4  CCCS(=O)(=O)Nc1ccc(F)c(C(=O)c2n[nH]c3ncc(-c4cccc(N)c4)cc23)c1F            < 3
5  CCCS(=O)(=O)Nc1ccc(F)c(C(=O)c2n[nH]c3ncc(-c4ccc(OC)cc4)cc23)c1F            < 3

Exercise: GET /values?readout=Selectivity ratio&item= CCCS(=O)(=O)Nc1ccc(F)c(C(=O)c2n[nH]c3ncc(-c4ccc(-c5nnn[nH]5)cc4)cc23)c1F
Solution: 3

Exercise: Which Selectivity ratio reading was recorded for the compound CCCS(=O)(=O)Nc1ccc(F)c([S+]([O-])c2n[nH]c3ncc(-c4ccc(Cl)cc4)cc23)c1F (stereo not drawn) ?
Solution: < 3

Exercise: Reported Selectivity ratio for CCCS(=O)(=O)Nc1ccc(F)c(C(=O)c2n[nH]c3ncc(-c4ccc(Cl)c(Cl)c4)cc23)c1F : what is it?
Solution: < 3

Exercise: State the recorded Selectivity ratio for this entry: CCCS(=O)(=O)Nc1ccc(F)c(C(=O)c2n[nH]c3ncc(-c4cccc(N(C)C)c4)cc23)c1F
Solution: < 3

Exercise: Selectivity ratio for O=C(c1ccc(F)c(NS(=O)(=O)Cc2ccccc2)c1F)c1n[nH]c2ncc(-c3ccncc3)cc12 ?
Solution: > 30

Exercise: State the recorded Selectivity ratio for this entry: CCCS(=O)(=O)Nc1ccc(F)c(C(=O)c2n[nH]c3ncc(-c4ccc(S(N)(=O)=O)cc4)cc23)c1F
Solution: 3

Exercise: Quick check: Selectivity ratio of CCCS(=O)(=O)Nc1c(F)ccc(C(=O)c2n[nH]c3ncc(-c4ccc(C(=O)O)cc4)cc23)c1F ?
Solution: > 30

Exercise: Item under review: CCCS(=O)(=O)Nc1ccc(F)c(C(=O)c2n[nH]c3ncc(-c4ccc(S(C)(=O)=O)cc4)cc23)c1F . Reported Selectivity ratio?
Solution: < 3

====

This listing pairs compounds with measured Selectivity ratio.
species on record: Homo sapiens; experiment: Selectivity index, ratio of inhibition of full length human MKK7 (M1 to R419 residues) expressed in mammalian expression system assessed as residual percent of control binding at 100 nM relative to control to inhibition of partial length human MKK4 (S84 to D399 residues) expressed in mammalian expression system assessed as residual percent of control binding at 100 nM relative to control

Below: 3 compounds and their reported Selectivity ratio.
> print(dat)
                                   compound     property.label  readout.value
1  CCCS(=O)(=O)Nc1ccc(F)c(C(=O)c2n[nH]c3ncc(-c4ccccc4O)cc23)c1F  Selectivity ratio             10
2  CCCS(=O)(=O)Nc1ccc(F)c(NC(=O)c2n[nH]c3ncc(-c4ccc(Cl)cc4)cc23)c1F  Selectivity ratio            < 3
3  CCCS(=O)(=O)Nc1ccc(F)c(C(=O)c2n[nH]c3ncc(-c4ccccc4Cl)cc23)c1F  Selectivity ratio             10

Exercise: # Selectivity ratio lookup, item CCCS(=O)(=O)Nc1ccc(F)c(C(=O)c2n[nH]c3ncc(-c4ccc(C)c(C)c4)cc23)c1F
Solution: 3

Exercise: Sample CCCS(=O)(=O)Nc1ccc(F)c(S(=O)(=O)c2n[nH]c3ncc(-c4ccc(Cl)cc4)cc23)c1F — what was its Selectivity ratio?
Solution: < 3

Exercise: # Selectivity ratio lookup, item CCCS(=O)(=O)Nc1ccc(F)c(C(=O)c2n[nH]c3ncc(-c4cccc([N+](=O)[O-])c4)cc23)c1F
Solution: 3

Exercise: Give the measured Selectivity ratio of CCCS(=O)(=O)Nc1ccc(F)c(Sc2n[nH]c3ncc(-c4ccc(Cl)cc4)cc23)c1F .
Solution: < 3

Exercise: Selectivity ratio lookup needed for CCCS(=O)(=O)Nc1ccc(F)c(C(=O)c2n[nH]c3ncc(-c4cccc(O)c4)cc23)c1F , thanks.
Solution: > 30

Exercise: Param item = CCCS(=O)(=O)Nc1ccc(F)c(C(=O)c2n[nH]c3ncc(-c4ccc(-c5nnn[nH]5)cc4)cc23)c1F ; retrieve measured Selectivity ratio.
Solution: > 30

Exercise: Consider the compound shown here: CCCS(=O)(=O)Nc1ccc(F)c(C(=O)c2n[nH]c3ncc(-c4ccc(C(N)=O)cc4)cc23)c1F What is its recorded Selectivity ratio?
Solution: > 30

Exercise: Entry under review: CCCS(=O)(=O)Nc1ccc(F)c(C(=O)c2n[nH]c3ncc(-c4ccc(N(C)C)cc4)cc23)c1F . Reported Selectivity ratio?
Solution: > 30
